Parameter: PBM binding z-score. Scope: all listed entries.
# System: THRa homodimer (NR concentration 90 nM)
# Test: PBM binding z-score (relative to random genomic background probes); higher = stronger binding; sequences stand for … in GC…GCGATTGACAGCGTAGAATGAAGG
Recorded Metric: PBM binding z-score

{"Biopolymer Sequence": "CCTCGGAGGACAACAAGAGGTCAGAGCTGCCAGA", "Recorded Metric": "PBM binding z-score", "Recorded Result": 0.992}
{"Biopolymer Sequence": "ATCTCTAGGTAACAGGTTCAGTGAAAGAGAGGAC", "Recorded Metric": "PBM binding z-score", "Recorded Result": 1.34}
{"Biopolymer Sequence": "TCTATTAGTTGAAGGGCAAACGACGAGTCCGTTT", "Recorded Metric": "PBM binding z-score", "Recorded Result": 0.286}
{"Biopolymer Sequence": "ATCTCTAGGTAAGACTCAGTTCAGTGAGGAACGC", "Recorded Metric": "PBM binding z-score", "Recorded Result": 0.481}
{"Biopolymer Sequence": "TAGAGTAGGTTAGGGGCATTCAGAATGGCGTCGA", "Recorded Metric": "PBM binding z-score", "Recorded Result": 0.85}
{"Biopolymer Sequence": "TCTTGTAGATCAATAGAGGTCAAGAAAGTGCGCT", "Recorded Metric": "PBM binding z-score", "Recorded Result": 0.941}
{"Biopolymer Sequence": "TCGAGTAGGTTACCAATGGGGCATTAAGCTTTCT", "Recorded Metric": "PBM binding z-score", "Recorded Result": -0.627}
{"Biopolymer Sequence": "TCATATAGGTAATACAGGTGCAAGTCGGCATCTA", "Recorded Metric": "PBM binding z-score", "Recorded Result": -0.0511}
{"Biopolymer Sequence": "CGTCAAAGTTCAATTAAGGTAACGTAAAGCACGC", "Recorded Metric": "PBM binding z-score", "Recorded Result": 2.51}
{"Biopolymer Sequence": "TCATATAGGTAAAAGGGGAAAGTCGGTGTGGTAA", "Recorded Metric": "PBM binding z-score", "Recorded Result": 0.383}
{"Biopolymer Sequence": "CTCGAAAGCTCGGTTGAGGTGAGTATACGGATAA", "Recorded Metric": "PBM binding z-score", "Recorded Result": 1.03}
{"Biopolymer Sequence": "AGTCAAAGTTCACTAGCTAACGTAAGATTCAGCT", "Recorded Metric": "PBM binding z-score", "Recorded Result": -0.145}
{"Biopolymer Sequence": "TGAATGAGGTTAAAGATCAGAGAACGTGGCGTCG", "Recorded Metric": "PBM binding z-score", "Recorded Result": 0.132}
{"Biopolymer Sequence": "CGTCCAAGGTCATAGTAGGTCAGTGAAGACAGAT", "Recorded Metric": "PBM binding z-score", "Recorded Result": 2.97}
{"Biopolymer Sequence": "CCTCACGGGTCACTGACAGGTTATAGCATTTGGA", "Recorded Metric": "PBM binding z-score", "Recorded Result": 0.669}
{"Biopolymer Sequence": "GCGACAGGGGCAAAGCAGGTTACCATAAGGTTGG", "Recorded Metric": "PBM binding z-score", "Recorded Result": 0.135}
{"Biopolymer Sequence": "TCTTATAGGTAAACAGGTGAAAGTCCGTAAGTTA", "Recorded Metric": "PBM binding z-score", "Recorded Result": 0.397}
{"Biopolymer Sequence": "CGAACTAGGTCACGAAAGGTCAAAGTCGAATGAC", "Recorded Metric": "PBM binding z-score", "Recorded Result": 2.52}
{"Biopolymer Sequence": "CGTCCAAGGTCAGAGAGGTCCGTGAATGCCGAGT", "Recorded Metric": "PBM binding z-score", "Recorded Result": 1.77}
{"Biopolymer Sequence": "ATATGTAGGTTATCGGGTCGTTCAGTTTGCGCAT", "Recorded Metric": "PBM binding z-score", "Recorded Result": 1.55}
{"Biopolymer Sequence": "GCTCGGAGGACAAGGGCAGAGCTTTGTCCGTAGA", "Recorded Metric": "PBM binding z-score", "Recorded Result": -0.399}
{"Biopolymer Sequence": "TCTGCTAGGTCAGTGGGTCAGCTAACGAGCTGCC", "Recorded Metric": "PBM binding z-score", "Recorded Result": 0.337}
{"Biopolymer Sequence": "AGATTGAGGTTATACGTAGATCAGGGAAGAAAGT", "Recorded Metric": "PBM binding z-score", "Recorded Result": 0.943}
{"Biopolymer Sequence": "ATACCAAGGTGATCGTGATGTCGTTGATACTAAC", "Recorded Metric": "PBM binding z-score", "Recorded Result": 0.541}
{"Biopolymer Sequence": "TCTCGGAGGACACGAAGGTCATAGCTTTCCAGAG", "Recorded Metric": "PBM binding z-score", "Recorded Result": 1.66}
{"Biopolymer Sequence": "TAGCCTAGGTCAGACCGGGCCAGTATACGCTATA", "Recorded Metric": "PBM binding z-score", "Recorded Result": -0.0936}

---

# Tested on: PPARg:RXRa 270nM:90nM, anti-RXR (NR concentration 270 nM, RXRa partner concentration 90 nM)
# Test: PBM binding z-score (relative to random genomic background probes); higher = stronger binding; sequences stand for … in GC…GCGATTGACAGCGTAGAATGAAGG
Entries and their measured PBM binding z-score follow.

{"Biopolymer Sequence": "CCGACTGGGGCGAGGTTACCATAACGCACAGCCA", "PBM binding z-score": 1.05}
{"Biopolymer Sequence": "AGAATGAGGTTATACGTCGATCAGGGAAGAAAGT", "PBM binding z-score": 2.99}
{"Biopolymer Sequence": "ATATGTAGGTTACATCCGGGTCAATCAGGCTATG", "PBM binding z-score": 5.29}
{"Biopolymer Sequence": "CGAAATAGGTCAAGGACAGTGAATCTCCGCACGC", "PBM binding z-score": 6.58}
{"Biopolymer Sequence": "TCTATTGGTTGAAGGGCAACCGACGAGTCCGTTT", "PBM binding z-score": 2.98}
{"Biopolymer Sequence": "TCTGCTAGGACAGTTGGTCAGCTAACGAGCTGCC", "PBM binding z-score": -0.161}
{"Biopolymer Sequence": "ATCTCTAAGTAACCAAGTTCAGTGAATGCCGAAC", "PBM binding z-score": 0.228}
{"Biopolymer Sequence": "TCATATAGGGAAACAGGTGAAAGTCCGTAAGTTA", "PBM binding z-score": 3.03}
{"Biopolymer Sequence": "CAAACTAGGTCACAGAAGTCAAAGTCCGTGCGTA", "PBM binding z-score": 7.26}
{"Biopolymer Sequence": "GCAGACAGGTGAAACGCAGGTAACTCAGGGTGGC", "PBM binding z-score": -0.117}
{"Biopolymer Sequence": "GGAACGAGGGCAAGTTGCTAGCAGAGTTTGATGG", "PBM binding z-score": 1.04}
{"Biopolymer Sequence": "CCTTACGGGTCACTCCAGGTTATAGCATCGGAGT", "PBM binding z-score": 3.74}

---

# Tested on: PXR homodimer (NR concentration 270 nM)
# Test: PBM binding z-score (relative to random genomic background probes); higher = stronger binding; sequences stand for … in GC…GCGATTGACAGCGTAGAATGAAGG
Recorded Metric: PBM binding z-score

{"Biopolymer Sequence": "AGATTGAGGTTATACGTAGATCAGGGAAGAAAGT", "Recorded Result": 0.75}
{"Biopolymer Sequence": "TCGAGAAGGTTACCAATGGGGCATTCAGCTTTCT", "Recorded Result": -1}
{"Biopolymer Sequence": "CAAACTAGATCAAGAGGTCAAAGTCCGCTTCCCG", "Recorded Result": 1.99}
{"Biopolymer Sequence": "CCTACTGGGCCAAATGTCATTGATTCCAATGCTC", "Recorded Result": -0.329}
{"Biopolymer Sequence": "CGTCCAAGGTCAATGCTATGTCAGTGAAAGCATT", "Recorded Result": 0.424}
{"Biopolymer Sequence": "ATCGCTAGGTAAAGATAGTTCAGTGAATGCAAAT", "Recorded Result": 0.193}
{"Biopolymer Sequence": "ACAATGAGGTTACCAAAGATCAGGGAAACGCTTG", "Recorded Result": 0.0541}
{"Biopolymer Sequence": "CAAACTAGGTCACGAAAGCTCAAAGTCGAATGAC", "Recorded Result": -0.0695}
{"Biopolymer Sequence": "GGAACGTGGGCAAGTTGATAGCAGAGTTTGATGG", "Recorded Result": 0.121}
{"Biopolymer Sequence": "CGTCCCAGGTCAAGGTCAGTGAAAGAGACTCGAA", "Recorded Result": 1.33}
{"Biopolymer Sequence": "CTCGAAAGGTCGATTGAGGTGAGTATACGGATAA", "Recorded Result": 0.0799}
{"Biopolymer Sequence": "TCTAGTTGGTCACGGAGTTCACACACGACGGGTA", "Recorded Result": 3.62}
